// reported T½ for each item listed
# Measured On: hErbB3.mmh (soluble monomeric human ErbB3 extracellular domain with C-terminal myc-myc-hexahistidine tag) (human, UniProt P21860 20-642)
# Sequence (P21860 other isoform, or with tags, fused parts or gaps): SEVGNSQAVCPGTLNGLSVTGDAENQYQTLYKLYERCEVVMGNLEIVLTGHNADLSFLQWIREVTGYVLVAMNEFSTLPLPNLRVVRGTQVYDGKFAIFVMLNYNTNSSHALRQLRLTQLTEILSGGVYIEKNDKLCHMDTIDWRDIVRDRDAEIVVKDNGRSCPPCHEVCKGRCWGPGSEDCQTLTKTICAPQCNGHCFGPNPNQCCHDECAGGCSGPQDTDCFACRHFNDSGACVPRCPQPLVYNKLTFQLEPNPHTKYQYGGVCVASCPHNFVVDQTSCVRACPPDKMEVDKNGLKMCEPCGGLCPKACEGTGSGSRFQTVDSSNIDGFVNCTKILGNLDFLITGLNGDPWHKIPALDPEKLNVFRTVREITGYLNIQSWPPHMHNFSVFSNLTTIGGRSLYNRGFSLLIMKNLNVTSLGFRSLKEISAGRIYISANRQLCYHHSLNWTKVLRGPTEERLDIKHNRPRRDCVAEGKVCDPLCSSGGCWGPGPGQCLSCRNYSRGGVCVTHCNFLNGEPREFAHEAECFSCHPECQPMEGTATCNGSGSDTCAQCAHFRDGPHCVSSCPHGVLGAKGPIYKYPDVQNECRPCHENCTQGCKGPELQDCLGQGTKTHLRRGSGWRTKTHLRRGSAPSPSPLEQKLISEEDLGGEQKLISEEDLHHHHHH
# Method Description: SPR (Biacore), 25 C, mAb capture format
Answer format: numeric, h implied, no suffix.

Below: 3 binders and their reported T½.
What does the data say about its T½? Entry: H4H2138P (antibody, V domains shown, Fully human, human IgG4 Fc (H4H prefix)) VH: QVQLQESGPGLVKPSQTLSLTCTVSGGSINSGGYYWSWIRQHPGKGLEWIGYISYSGNTNYNPSLKSRVTISVDTSKNQFSLTLTSVTAADTAVYYCARDSDVDTGLVDGFDVWGQGTMVTVSS VL: DIVMTQSPSSVSASVGDRVTITCRASQGVSSWLAWYQQKPGKAPKLLIYTTSSLQSGVPSRFSGSGSGTDFTLTISSLQPEDFATYYCQQSNSFPFTFGPGTKVEIK
3.55

Follow-up item: H2M1824N (antibody, V domains shown, Hybridoma chimeric antibody: human variable domains, mouse IgG2 Fc (H2M prefix)) VH: EVQLVESGGGVVRPGGSLRLSCAASGFTFDDYGMSWVRQAPGKGLECVSGINWNGGSTDYADSVKGRFTISRDNAKNSLYLQMNSLRAEDTASYYCARDGGDWDYFDLWGRGTLVTVSS VL: EIVMTQSPATLSVSPGERATLSCRASQSVSSNLAWYQQKPGQAPRLLIYGASTRATGIPARFSGSGSGTEFTLTISSLQSEDFAVYFCQEYNDWPLTFGGGTKVEIK
4.23

Follow-up item: H4H2147P (antibody, V domains shown, Fully human, human IgG4 Fc (H4H prefix)) VH: QVQLVESGGGLVKPGGSLRLSCAASGFTFSDFNMGWIRQAPGKGLEWVSHISGSGNVIYYADSVKGRFAISRDNGKNSLYLQVNSLRAEDTAVYYCARDIGDSDAFDIWGQGTMVTVSS VL: DIQLTQSPSFLSASVGDRVTITCWASQDISSYLAWYQQKPGKAPKLLIYGASTLESGVPSRFSGSGSGTEFTLTISSLQPEDVATYYCQQLNTYPLTFGGGTKVEIKR
1.63

***
What does the data say about its T½? Entry: H4H2102P (antibody, V domains shown, Fully human, human IgG4 Fc (H4H prefix)) VH: EVQLVESGGGLVQPGGSLRLSCAASGFTFSNYDIHWVRQATGKGLEWVSAIGPAGDTYYSDSVKGRFTISREDAKNSLYLQMSSLRAGDTAVYYCASEGIAVRPDDYYGMDVWGQGTTVTVSA VL: DIQLTQSPSFLSASVGDRVTITCWASQDITSYLAWYQKKPGKAPKLLIYAASTLQSGVPSRFSGSGSGTEFTLTISSLQPEDFAAYYCQQLNSYPLTFGGGTKVDIKR
3.63
